A collection of molecules and their measured melting point
testReadout: melting point

- Cc1cc(SC2=C(O)CC(C3CCCC3)(C3CCCC3)OC2=O)c(C(C)(C)C)cc1OS(=O)(=O)c1cn(C)cn1: 143 to 145 °C
- Cc1cc(SC2=C(O)CC(CCc3ccc(O)cc3)(C3CCCC3)OC2=O)c(C(C)(C)C)cc1NS(=O)(=O)c1ccccc1 (racemic): 125 to 127 °C
- CCCN(C1=C(O)CC(C2CCCC2)(C2CCCC2)OC1=O)c1cccc(NS(=O)(=O)c2ccccn2)c1: 105 to 107 °C
- CC(=O)Nc1cc(C(C)(C)C)c(SC2=C(O)CC(CCc3ccc(O)cc3)(C3CCCCC3)OC2=O)cc1C (stereo not drawn): > 154 °C
- CCNS(=O)(=O)Oc1cc(C(C)(C)C)c(SC2=C(O)CC(CCc3cccc(O)c3)(C3CCCC3)OC2=O)cc1C (stereo not drawn): 69 to 72 °C
- Cc1cc(SC2=C(O)CC(C3CCCC3)(C3CCCC3)OC2=O)c(C(C)(C)C)cc1OCCO: 100 to 102 °C

---

testReadout: melting point

- Cc1cc(SC2=C(O)CC(C3CCCC3)(C3CCCC3)OC2=O)c(C(C)(C)C)cc1N [Example 179]: 163 to 165 °C
- CCCN(C1=C(O)C[C@@](CCc2cccc(O)c2)(C2CCCC2)OC1=O)c1ccccc1 [Example 155]: 74 to 76 °C
- O=C1CC(=O)OC(CCc2ccccc2)(C2CCCC2)C1 (centres unmarked) [Example 35]: 96 to 99 °C
- CCN(C1=C(O)CC(CCc2ccc(O)cc2)(C2CCCC2)OC1=O)c1ccccc1 (centres unmarked) [Example 160]: 83 to 85 °C
- Cc1cc(SC2=C(O)CC(CCc3ccc(O)cc3)(C3CCCC3)OC2=O)c(C(C)(C)C)cc1OS(=O)(=O)N1CCN(C)CC1 (centres unmarked) [Example 147]: 163 to 165 °C
- O=C1OC(CCc2ccc(O)cc2)(C2CCCC2)CC(O)=C1N(c1ccccc1)c1ccccc1 (centres unmarked) [Example 161]: 93 to 94 °C
- Cc1cc(SC2=C(O)CC(CCc3ccc(O)cc3)(C3CCCCC3)OC2=O)c(C(C)(C)C)cc1N (centres unmarked) [Example 143]: > 133 °C
- CCCN(C1=C(O)CC(C2CCCC2)(C2CCCC2)OC1=O)c1cccc(N)c1 [Example 187]: 173 to 175 °C

---

A collection of compounds and their measured IC50
biological target: Recombinant HCV polymerase (Hepatitis C virus genotype 1b, UniProt P26663); construct: 2.5 pmoles (0.15 μg) HCV polymerase protein; assay: HCV Polymerase Inhibition Assay; assay type: biochemical; settings: primer/template-directed transcription, 30 minutes at 30° C.; category symbol
Sequence (P26663 2420-3010): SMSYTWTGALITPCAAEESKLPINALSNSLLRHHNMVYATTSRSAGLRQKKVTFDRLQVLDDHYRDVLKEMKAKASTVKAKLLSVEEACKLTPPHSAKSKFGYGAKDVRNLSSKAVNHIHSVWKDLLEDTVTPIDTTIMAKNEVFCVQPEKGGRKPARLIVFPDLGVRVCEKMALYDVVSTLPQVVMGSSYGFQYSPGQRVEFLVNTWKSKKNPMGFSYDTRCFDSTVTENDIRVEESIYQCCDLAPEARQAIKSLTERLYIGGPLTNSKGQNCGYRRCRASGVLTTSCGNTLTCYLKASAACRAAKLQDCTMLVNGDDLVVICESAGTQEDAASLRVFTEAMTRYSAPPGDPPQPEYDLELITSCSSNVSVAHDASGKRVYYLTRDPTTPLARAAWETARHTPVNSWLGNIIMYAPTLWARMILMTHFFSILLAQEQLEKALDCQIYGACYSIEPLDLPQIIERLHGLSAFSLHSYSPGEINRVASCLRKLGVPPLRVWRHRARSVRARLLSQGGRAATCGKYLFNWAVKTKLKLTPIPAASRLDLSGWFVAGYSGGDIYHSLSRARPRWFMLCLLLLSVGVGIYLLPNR
testReadout: IC50

* COc1ccc(CCC2(C3CCCC3)CC(=O)C(C(C)=O)C(=O)O2)cc1 (stereo not shown) [Example 168] | 10 to 50 µM
* COC1=CC(=O)OC(CCc2cccc(C(C)C)c2)(C2CCCC2)C1 (stereo not shown) [Example 34] | 10 to 50 µM
* COc1cc(F)c(CCC2(C3CCCC3)CC(=O)CC(=O)O2)cc1F (stereo not shown) [Example 74] | 1 to 10 µM
* O=C1CC(=O)OC(CCc2ccc3c(c2)OCO3)(C2CCCC2)C1 (stereo not shown) [Example 23] | 10 to 50 µM
* COc1cc(OC)c(CCC2(C3CCCC3)CC(O)=C(Sc3nnc(O)n3C)C(=O)O2)cc1Cl (stereo not shown) [Example 95] | < 1 µM
* CC(C)Oc1cccc(CCC2(C3CCCC3)CC(=O)CC(=O)O2)c1 (stereo not shown) [Example 33] | 1 to 10 µM
* COc1ccc(CCC2(C3CCCC3)CC3=C(CCCO3)C(=O)O2)c(OC)c1 (stereo not shown) [Example 103] | > 50 µM
* CC(=O)c1ccc(CCC2(C3CCCC3)CC(=O)CC(=O)O2)cc1F (stereo not shown) [Example 59] | 1 to 10 µM
* COc1ccc(CCC2(C3CCCC3)CC(=O)C(C(C)=O)C(=O)O2)c(OC)c1 (stereo not shown) [Example 166] | 10 to 50 µM
* COc1ccc(CCC2(C3CCCC3)CC(=O)CC(=O)O2)c(OC)c1 (stereo not shown) [Example 38] | 10 to 50 µM
* CCNS(=O)(=O)Oc1cc(C(C)(C)C)c(SC2=C(O)CC(CCc3cccc(O)c3)(C3CCCC3)OC2=O)cc1C (stereo not shown) [Example 149] | > 50 µM
* CCn1nnnc1SC1=C(O)CC(CCc2cc(Cl)c(OC)cc2OC)(C2CCCC2)OC1=O (stereo not shown) [Example 106] | < 1 µM
* COc1ccc(CCC2(C3CCCC3)CC(O)=C(Sc3nc(C)c(CC(=O)O)s3)C(=O)O2)cc1 (stereo not shown) [Example 112] | < 1 µM
* O=C1C=C(O)CC(CCc2cc3ccccc3o2)(C2CCCC2)O1 (stereo not shown) [Example 46] | 10 to 50 µM
* CC(=O)c1ccc(CCC2(C3CCCC3)CC(=O)CC(=O)O2)cc1Cl (stereo not shown) [Example 61] | 1 to 10 µM
* COc1cc(OC)c(CCC2(C3CCCC3)CC(O)=C(Sc3nccs3)C(=O)O2)cc1Cl (stereo not shown) [Example 109] | < 1 µM
* O=C1CC(=O)OC(CCc2cccc(Cl)c2)(C2CCCC2)C1 (stereo not shown) [Example 26] | 1 to 10 µM
* O=C1C=C(O)CC(CCc2ccc(Oc3ccccc3)cc2)(C2CCCC2)O1 (stereo not shown) [Example 47] | 10 to 50 µM
* Cc1cc(SC2=C(O)CC(CCc3ccco3)(C(C)C)OC2=O)c(C(C)(C)C)cc1CO (stereo not shown) [Example 134] | 1 to 10 µM
* CC(C)(C#N)c1cccc(CCC2(C3CCCC3)CC(=O)CC(=O)O2)c1 (stereo not shown) [Example 13] | 1 to 10 µM
* COc1cc(OC)c(CCC2(C3CCCC3)CC(O)=C(Sc3ncc(CO)n3C)C(=O)O2)cc1Cl (stereo not shown) [Example 98] | < 1 µM
* Cc1noc(COc2ccc(CCC3(C4CCCC4)CC(O)=CC(=O)O3)cc2)n1 (stereo not shown) [Example 48] | 10 to 50 µM
* O=C1C=C(O)CC(CCCC2CCCCC2)(C2CCCC2)O1 (stereo not shown) [Example 22] | 10 to 50 µM
* CC1(c2ccc(CCC3(C4CCCC4)CC(=O)CC(=O)O3)cc2Cl)CC(=O)CC(=O)O1 (stereo not shown) [Example 82] | < 1 µM
* CC(=O)c1ccc(CCC2(C3CCCC3)CC(=O)CC(=O)O2)cc1 (stereo not shown) [Example 63] | 1 to 10 µM
* O=C1C=C(O)CC(CCc2ccc(OCc3ccc(Cl)c(Cl)c3)cc2)(C2CCCC2)O1 (stereo not shown) [Example 51] | 10 to 50 µM
* Cc1cc(SC2=C(O)CC(CCc3ccc(O)cc3)(C3CCCC3)OC2=O)c(C(C)(C)C)cc1OS(=O)(=O)N1CCN(C)CC1 (stereo not shown) [Example 147] | 1 to 10 µM
* COc1ccc(CCC2(C3CCCC3)CC(O)=C(Sc3nnnn3-c3ccc(O)cc3)C(=O)O2)cc1 (stereo not shown) [Example 114] | < 1 µM
* O=C1CC(=O)OC(CCc2ccc(N3CCCC3=O)c(F)c2)(C2CCCC2)C1 (stereo not shown) [Example 80] | 1 to 10 µM
* COC(=O)Cc1ccc(CCC2(C3CCCC3)CC(=O)CC(=O)O2)cc1 (stereo not shown) [Example 10] | 10 to 50 µM
* O=C1O[C@](CCc2cccc(O)c2)(C2CCCC2)CC(O)=C1N(c1ccccc1)c1ccccc1 [Example 156] | 10 to 50 µM
* Cc1cc(SC2=C(O)C[C@](CCc3cccc(O)c3)(C3CCCC3)OC2=O)c(C(C)(C)C)cc1CO [Example 153] | < 1 µM
* COc1cc(OC)c(CCC2(C3CCCC3)CC(O)=C(Sc3nnnn3CCN(C)C)C(=O)O2)cc1Cl (stereo not shown) [Example 107] | < 1 µM
* Cc1cc(CCC2(C3CCCC3)CC(O)=CC(=O)O2)ccc1C1(C)OCCO1 (stereo not shown) [Example 18] | 1 to 10 µM

Values from patent US7115658B2
